These entries and their values trace back to ChEMBL document CHEMBL4052716.

# target_desc: UniProtKB Q7Z2W7
# Sequence (Q7Z2W7 whole entry): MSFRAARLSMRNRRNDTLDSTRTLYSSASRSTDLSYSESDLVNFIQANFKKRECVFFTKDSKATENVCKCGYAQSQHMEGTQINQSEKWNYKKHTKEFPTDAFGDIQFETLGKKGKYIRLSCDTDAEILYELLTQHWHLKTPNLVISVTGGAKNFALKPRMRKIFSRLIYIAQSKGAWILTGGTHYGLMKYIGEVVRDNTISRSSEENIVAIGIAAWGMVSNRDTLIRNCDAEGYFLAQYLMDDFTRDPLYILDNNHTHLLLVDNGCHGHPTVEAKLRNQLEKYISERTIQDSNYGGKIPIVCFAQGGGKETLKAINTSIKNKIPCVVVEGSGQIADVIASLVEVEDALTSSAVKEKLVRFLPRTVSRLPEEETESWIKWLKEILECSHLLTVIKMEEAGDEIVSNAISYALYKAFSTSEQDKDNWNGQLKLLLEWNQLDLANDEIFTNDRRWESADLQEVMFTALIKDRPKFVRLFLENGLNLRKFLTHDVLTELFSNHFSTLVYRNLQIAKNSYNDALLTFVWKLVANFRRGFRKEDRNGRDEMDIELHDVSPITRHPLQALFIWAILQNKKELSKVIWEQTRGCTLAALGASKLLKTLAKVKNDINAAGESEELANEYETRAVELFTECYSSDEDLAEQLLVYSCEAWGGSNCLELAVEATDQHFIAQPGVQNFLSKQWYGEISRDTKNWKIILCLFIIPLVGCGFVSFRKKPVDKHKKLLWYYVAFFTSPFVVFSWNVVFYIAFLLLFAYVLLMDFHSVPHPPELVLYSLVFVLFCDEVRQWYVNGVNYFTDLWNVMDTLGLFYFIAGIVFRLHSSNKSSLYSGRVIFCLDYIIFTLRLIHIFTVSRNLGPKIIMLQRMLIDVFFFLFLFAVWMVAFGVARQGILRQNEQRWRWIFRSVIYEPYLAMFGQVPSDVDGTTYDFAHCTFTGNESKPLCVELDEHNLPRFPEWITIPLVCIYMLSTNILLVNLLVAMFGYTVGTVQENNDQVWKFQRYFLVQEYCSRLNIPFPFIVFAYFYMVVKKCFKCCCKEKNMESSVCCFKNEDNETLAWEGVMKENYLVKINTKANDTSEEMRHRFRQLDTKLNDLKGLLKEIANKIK
# assay_method_text: Agonist activity at human TRPM8 expressed in HEK293 cells assessed as increase in intracellular calcium level after 15 mins by Fluo-3-AM dye-based fluorescence assay
# Format: cell-based
# condition_label: hek293
measurement_type: EC50

Can you look up EC50 on UniProtKB Q7Z2W7 for `CCN(Cc1cccs1)C(=O)COc1ccc(C(=O)O)cc1` ?
Not Active

Can you look up EC50 on UniProtKB Q7Z2W7 for Cc1ccc(OC2CCN(Cc3cccs3)C2=O)cc1 (stereo not drawn) ?
Not Active

Can you look up EC50 on UniProtKB Q7Z2W7 for `CCN(Cc1cccs1)C(=O)C[C@@H](O)c1ccccc1` ?
Not Active
